Biological target: Neurogenic locus notch homolog protein 3 (Homo sapiens) (UniProt Q9UM47)
Sequence (Q9UM47 whole entry, looked up): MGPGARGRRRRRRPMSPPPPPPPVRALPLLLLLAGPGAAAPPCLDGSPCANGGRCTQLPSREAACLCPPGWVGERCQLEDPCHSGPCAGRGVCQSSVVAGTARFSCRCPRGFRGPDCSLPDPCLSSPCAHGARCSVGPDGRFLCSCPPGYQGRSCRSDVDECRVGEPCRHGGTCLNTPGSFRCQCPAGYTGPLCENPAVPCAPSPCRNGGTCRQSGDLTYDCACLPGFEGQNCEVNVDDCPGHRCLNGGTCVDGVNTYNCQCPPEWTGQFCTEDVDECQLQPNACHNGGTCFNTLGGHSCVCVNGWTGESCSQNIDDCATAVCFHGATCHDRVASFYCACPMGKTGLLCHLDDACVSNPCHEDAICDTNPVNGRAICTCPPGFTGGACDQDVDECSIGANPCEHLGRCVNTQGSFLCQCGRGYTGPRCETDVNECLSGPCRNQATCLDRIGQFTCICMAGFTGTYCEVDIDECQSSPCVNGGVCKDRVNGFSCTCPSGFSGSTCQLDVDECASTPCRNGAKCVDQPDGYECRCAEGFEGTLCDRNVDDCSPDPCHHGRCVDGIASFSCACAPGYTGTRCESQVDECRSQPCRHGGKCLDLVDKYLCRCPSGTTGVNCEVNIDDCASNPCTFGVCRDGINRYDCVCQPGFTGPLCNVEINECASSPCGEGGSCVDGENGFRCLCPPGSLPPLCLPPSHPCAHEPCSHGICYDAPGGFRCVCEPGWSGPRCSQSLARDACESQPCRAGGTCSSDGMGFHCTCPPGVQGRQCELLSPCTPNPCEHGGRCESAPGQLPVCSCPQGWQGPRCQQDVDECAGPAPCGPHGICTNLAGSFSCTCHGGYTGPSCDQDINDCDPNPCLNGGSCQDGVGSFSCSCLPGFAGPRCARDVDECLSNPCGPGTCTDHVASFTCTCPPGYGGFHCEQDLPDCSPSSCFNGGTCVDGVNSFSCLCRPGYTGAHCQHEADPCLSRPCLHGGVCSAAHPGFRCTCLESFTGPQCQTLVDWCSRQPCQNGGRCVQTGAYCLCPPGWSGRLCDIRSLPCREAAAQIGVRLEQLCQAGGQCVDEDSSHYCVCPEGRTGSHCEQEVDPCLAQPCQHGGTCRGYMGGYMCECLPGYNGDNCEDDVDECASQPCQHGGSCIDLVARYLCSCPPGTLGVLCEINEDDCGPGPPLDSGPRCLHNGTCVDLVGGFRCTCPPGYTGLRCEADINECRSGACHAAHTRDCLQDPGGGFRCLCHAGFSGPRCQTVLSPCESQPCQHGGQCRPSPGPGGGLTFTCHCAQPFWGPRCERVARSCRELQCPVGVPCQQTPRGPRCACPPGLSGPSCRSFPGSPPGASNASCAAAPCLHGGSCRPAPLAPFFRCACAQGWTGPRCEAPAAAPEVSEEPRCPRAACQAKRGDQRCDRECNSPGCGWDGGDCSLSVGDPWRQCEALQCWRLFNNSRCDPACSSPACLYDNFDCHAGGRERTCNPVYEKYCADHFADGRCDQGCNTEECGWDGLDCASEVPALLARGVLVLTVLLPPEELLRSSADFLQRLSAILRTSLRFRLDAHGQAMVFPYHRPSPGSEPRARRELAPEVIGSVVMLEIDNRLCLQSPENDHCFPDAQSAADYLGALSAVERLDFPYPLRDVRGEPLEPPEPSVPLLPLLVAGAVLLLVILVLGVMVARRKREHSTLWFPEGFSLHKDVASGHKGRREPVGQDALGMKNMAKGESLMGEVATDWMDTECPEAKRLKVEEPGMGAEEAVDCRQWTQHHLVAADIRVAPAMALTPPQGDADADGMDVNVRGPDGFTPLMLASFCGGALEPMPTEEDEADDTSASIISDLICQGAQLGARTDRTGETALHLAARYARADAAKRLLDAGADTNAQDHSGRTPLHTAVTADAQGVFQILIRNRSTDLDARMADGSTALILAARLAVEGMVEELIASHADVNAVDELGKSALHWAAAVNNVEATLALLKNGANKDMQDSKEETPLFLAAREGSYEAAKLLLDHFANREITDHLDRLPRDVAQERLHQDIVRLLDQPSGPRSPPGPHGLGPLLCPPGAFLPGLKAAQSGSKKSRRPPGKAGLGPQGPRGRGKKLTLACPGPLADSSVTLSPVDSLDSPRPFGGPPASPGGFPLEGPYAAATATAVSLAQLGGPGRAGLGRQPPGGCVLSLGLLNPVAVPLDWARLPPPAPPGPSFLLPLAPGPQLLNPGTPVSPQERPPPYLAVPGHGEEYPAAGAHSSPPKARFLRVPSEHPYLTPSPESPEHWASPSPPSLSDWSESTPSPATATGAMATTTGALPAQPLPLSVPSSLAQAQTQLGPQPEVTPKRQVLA
Test: NOTCH3 binders on small-molecule microarray, primary screen, biochemical, 635/667 nm fluorescence (AID 1096)
Conditions: NOTCH3 binding, 635 nm fluorescence, higher = more signal
We use 1 as the dividing line for composite z-score: on or above the line is rule met, below is rule not met.

As a guide, the following entries are already answered.
>>> class_label("CN(C)C(=O)[C@@]1(Cc2ccccc2CN=[N+]=[N-])N=C(c2ccc(OCCCO)cc2)O[C@H]1c1ccccc1CN=[N+]=[N-]")
"rule not met"
>>> class_label("[N-]=[N+]=NCc1ccccc1C[C@]1(C(N)=O)N=C(c2ccc(OCCCO)cc2)O[C@H]1c1ccccc1")
"rule not met"

[Q] Quick check: does O=C(NCCCCCNC(=O)/C(Cc1ccccc1)=N/O)OCc1ccccc1 have composite z-score greater than or equal to 1?
[A] rule not met

[Q] Determine whether this compound has composite z-score no lower than 1: CC(CO)N1C(=O)[C@@H]2[C@H]3C(=O)OCC=C[C@H]3OC23C=CCN(C(C)(C)C)C(=O)[C@@H]13 (stereo partly drawn)
[A] rule not met

[Q] Determine whether this compound has composite z-score no lower than 1: C=C[C@@H](OC)[C@H](OC(=O)Nc1ccc(SC)cc1)c1ccc(O)c(F)c1
[A] rule not met

----------
System: Lefty1
Assay: Lefty1 binders on small-molecule microarrays, primary screen, biochemical, small-molecule microarray, 635/667 nm fluorescence (AID 1139)
Settings: small-molecule microarray binding, fluorescence 635/667; higher = more signal
Label scheme for composite z-score: lower than 0.6 is condition not met, 0.6 and above is condition met.

>>> class_label("COc1cc2c(cc1OC)CN(C(=O)[C@@H]1[C@H]3C(=O)O[C@H](c4ccccc4)[C@H](c4ccccc4)N3[C@H](c3ccc(OCCO)cc3)[C@@]13C(=O)Nc1ccccc13)CC2")
"condition met"

API: the following record is the query input.
[Q] Hi team, for COC(=O)[C@@]1(Cc2ccc(F)cc2)[C@H]2c3cc(C(=O)N(C)C)n(Cc4cc(F)cc5c4OCOC5)c3C[C@H]2CN1C(=O)c1ccccc1 , is the recorded composite z-score at or above 0.6?
[A] condition not met

----------
Experiment: E. coli growth modulation, two-sided OD650, primary screen, E. coli filamentation project, strain DRC41, 24 h (AID 1093);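 further: MC1000 strain lacking acrAB efflux and sulA so SOS filamentation is blocked; test concentration not given here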
Conditions: OD650, 24 h, higher = more signal, called active from +8 up or from −8 down
Answer criterion not met if z-score is under -0.2, and criterion met if it is -0.2 or more.

Worked examples, 5 molecules total:
>>> class_label("Cc1ccc(S[C@]2(C(=O)O)CC(=O)N(Cc3cc(C(F)(F)F)cc(C(F)(F)F)c3)[C@@H]2c2ccc(CO)cc2)cc1")
"criterion not met"
>>> class_label("C[N+](C)(C)CCCCCCNC(=O)[C@H]1C[C@H]2C(=O)NCC(=O)N2[C@H]1c1ccc(O)cc1")
"criterion met"
>>> class_label("C=CCOC(=O)[C@H]1[C@@H]2C(=O)O[C@@H](c3ccccc3)[C@@H](c3ccccc3)N2[C@@H](c2ccc(OCCOC(=O)[C@H]3C[C@H]4C(=O)N[C@@H](CC(C)C)C(=O)N4[C@H]3c3cccc(OCCO)c3)cc2)[C@]12C(=O)Nc1ccc(I)cc12")
"criterion not met"
>>> class_label("CN(C)C(=O)[C@@]1(Cc2ccccc2CN=[N+]=[N-])N=C(c2ccc(OCCCO)cc2)O[C@H]1c1ccccc1CN=[N+]=[N-]")
"criterion met"
>>> class_label("COCCOC(=O)N1C(=O)[C@@]2(c3cc(C#Cc4ccc(OC)cc4)ccc31)[C@H](C(=O)Nc1nc3ccccc3s1)[C@H]1C(=O)O[C@H](c3ccccc3)[C@H](c3ccccc3)N1[C@@H]2c1ccc(OCCO)cc1")
"criterion met"

[Q] In plain terms: is recorded z-score at least -0.2 for C[C@@H]1ON(c2ccc(C(=O)OC(C)(C)C)cc2)[C@H](c2ccc(O)cc2)[C@H]1C(=O)N1C(=O)OC[C@H]1Cc1ccccc1 ?
[A] criterion not met

[Q] Hello, I need to know if COC1OC[C@]2(C)[C@H]3C4=C(CN2C(=O)OC(C)(C)C)[C@H](C)C(CO)C(CO)C4CC[C@@H]13 (some centres not stated) has measured z-score not below -0.2. Thanks!
[A] criterion met

[Q] Reported z-score reaches at least -0.2 for C[C@H]1NC(=O)[C@@]23C(=O)N[C@@H](Cc4ccccc4)C2[C@H](C)[C@@]2(C)O[C@H]2C3/C=C/C/C=C\CNC(=O)[C@H](Cc2ccccc2)NC1=O (some centres not stated) ?
[A] criterion not met

[Q] Please indicate if the recorded z-score for O=C(NCC(F)(F)F)[C@@H]1c2ccccc2C(=O)N(Cc2ccccc2C(F)(F)F)[C@H]1c1ccc(CO)cc1 meets or exceeds -0.2.
[A] criterion met

[Q] Hello, I need to know if NCCCCCNC(=O)[C@@H]1C[C@@H]2C(=O)NCC(=O)N2[C@@H]1c1cccc(OCCO)c1 has measured z-score not below -0.2. Thanks!
[A] criterion met
